- Test system: KM12 colon
- protocol-description: NCI tumour cell line growth inhibition, 48 h
measurement-type: TGI

smiles-data: O=C(C=Nc1ccccc1C(=O)[O-])c1cccs1.O=C(C=Nc1ccccc1C(=O)[O-])c1cccs1.[Ni+2]
value-reported: > 100 µM

Query TGI on KM12 colon for CNC(=O)N(CCC#N)CCN(C(=O)NC)c1ccccc1 > 100 µM

Query TGI on KM12 colon for O=C1c2cc(I)ccc2N2CCN=C2N1Cc1ccccc1 > 100 µM

###

TGI: recorded values
- Tested on: HOP-62 NSCLC
- protocol-description: NCI tumour cell line growth inhibition, 48 h
Express it in µM; write the number only.

The following molecules have reported results that may help.
molecule: O=C1C=C(Nc2ccccc2C(=O)CC(=O)C(=O)Nc2ccc(Cl)cc2)c2ccccc2C1=O
uom: µM
TGI: 44.5
//
molecule: CCCCCCC1N=C(N)N=C(N)N1c1cccc(Cl)c1 (configuration not stated)
uom: µM
TGI: 10.9

Then there is this molecule:
Query TGI on HOP-62 NSCLC for CN1CCN(C(=O)[C@@]2(C)CC[C@]3(C)CC[C@]4(C)C(=CC[C@@H]5[C@@]6(C)CCC(=O)NC(C)(C)[C@@H]6CC[C@]54C)[C@@H]3C2)CC1 3.13

###

- System: HT29 colon
- protocol-description: NCI tumour cell line growth inhibition, 48 h
TGI: recorded values
Express it in µM; write the number only.

smiles-data: CCn1c2nc(=O)n(CCCCCCCCSC(c3ccccc3)(c3ccccc3)c3ccccc3)c(=O)c-2nc2ccccc21
measurement-type: TGI
uom: µM
value-reported: 18.1

What does the record list as TGI for CCCCCCCCCCCCCC[n+]1ccccc1 ? 1.46

What does the record list as TGI for CN(C)C(=O)Oc1c(Br)cc(Br)cc1C(=O)OCc1ccccc1 ? 19.2

###

- Test system: UACC-257 melanoma
- protocol-description: NCI tumour cell line growth inhibition, 48 h
TGI: recorded values

compound: CNS(=O)(=O)OCC1OC(n2cnc3cncnc32)C(O)C1O (stereo not drawn)
tested-system: UACC-257 melanoma
value-reported: > 100 µM

Query TGI on UACC-257 melanoma for Fc1cc(F)c(F)c(S)c1F > 100 µM

Query TGI on UACC-257 melanoma for COC(=O)C1=COC2OC3C(C(C)O)C(=O)OC34C=CC1C24 (stereo not drawn) > 100 µM

###

- System: NCI-H460 lung
- protocol-description: NCI tumour cell line growth inhibition, 48 h; in the data active = GI50 below about 0.43 µM; inactive = the rest
Choose one outcome from this list and give only that: active, inactive

As a guide, the following entries are already answered.
compound: O=C1C(=c2ccc(=C3C(=O)c4ccc([N+](=O)[O-])cc4[N+]3=O)cc2)N([O-])c2cc([N+](=O)[O-])ccc21
tested-system: NCI-H460 lung
cat: inactive

compound: CNC(=O)c1nn(C)c2c1C(C)(C)Cc1cnc(Nc3cccc(N4CCN(C)CC4)c3)nc1-2
tested-system: NCI-H460 lung
cat: active

compound: CC(c1cc(Cl)ccc1O)c1cc(Cl)ccc1O
tested-system: NCI-H460 lung
cat: inactive

compound: Cc1ccc([P+](Cc2ccccc2)(c2ccccc2)c2ccccc2)cc1
tested-system: NCI-H460 lung
cat: inactive

Now take the following compound into account.
Please indicate how the test categorized O=C(CN1CCN(Cc2ccccc2Cl)CC1)NC1CC(=O)c2c(Br)sc(Br)c21 (stereo not given) . inactive

###

- Test system: SK-MEL-5 melanoma
- protocol-description: NCI tumour cell line growth inhibition, 48 h
GI50: recorded values

The following molecules have reported results that may help.
molecule: CN1CC=C(c2cc(NC(=O)Nc3ccc(Oc4ccnc(NC(=O)C5CC5)c4)c(F)c3)cc(C(F)(F)F)c2)CC1
tested-system: SK-MEL-5 melanoma
GI50: 853 nM
//
molecule: COc1cc(OC)cc(Oc2cnc3cc(N)cc(N)c3n2)c1
tested-system: SK-MEL-5 melanoma
GI50: 15300 nM

What does the record list as GI50 for CCCCCCC1N=C(N)N=C(N)N1c1cccc(Cl)c1 (stereo not drawn) ? 474 nM

###

- Tested on: MALME-3M melanoma
- protocol-description: NCI tumour cell line growth inhibition, 48 h
measurement-type: TGI

The following molecules have reported results that may help.
molecule: COc1cc2c3c(n(CCCN(CCCN(CCCn4c5c(c6ccccc6c4=O)C(=O)c4ccccc4-5)C(=O)OC(C)(C)C)C(=O)OC(C)(C)C)c(=O)c2cc1OC)-c1cc2c(cc1C3=O)OCO2
tested-system: MALME-3M melanoma
TGI: > 100 µM
//
molecule: COc1cccc2c1OC1Sc3ccccc3-c3nn(-c4ccccc4)c-2c31 (stereo not drawn)
tested-system: MALME-3M melanoma
TGI: > 100 µM
//
molecule: COC1/C=C/C=C(/C)Cc2cc(O)c(Cl)c(c2)N(C)C(=O)CC(OC(=O)C(C)C)C2(C)OC2C(C)C2CC1(O)NC(=O)O2 (stereo not drawn)
tested-system: MALME-3M melanoma
TGI: > 100 µM
//
molecule: O=c1c2c3c(sc2nc2n1N=CN(c1ccccc1)C2)CCCC3
tested-system: MALME-3M melanoma
TGI: > 100 µM

Then there is this molecule:
Query TGI on MALME-3M melanoma for COC(=O)Cc1c([C@@]2(C)CCCC(C)(C)C2)ccc2c1C(=O)OC2 38 µM

###

- Test system: M14 melanoma
- protocol-description: NCI tumour cell line growth inhibition, 48 h
measurement-type: TGI (µM)
Express it in µM; write the number only.

The following compounds have reported results that may help.
compound: N[C@H]1c2c(Br)sc(Br)c2C(=O)[C@H]1O
measurement-type: TGI
value-reported: 48.4
//
compound: Cc1ccc([P+](Cc2ccccc2)(c2ccccc2)c2ccccc2)cc1
measurement-type: TGI
value-reported: 16.4
//
compound: C=C(C)[C@@H](O)[C@H](O)C[C@H](C)C1CC[C@]2(C)C1=CC[C@@H]1[C@@]3(C)CC[C@@H](OC(C)=O)C(C)(C)[C@@H]3C[C@@H](OC3OC(COC(C)=O)C(O)C(O)C3O)[C@]12C (stereo partly drawn)
measurement-type: TGI
value-reported: 7.38

Then there is this compound:
What does the record list as TGI for O=C(/C=C/C12c3ccccc3C(c3ccccc31)C1C(=O)N(c3ccc(Cl)cc3)C(=O)C12)c1ccccn1 (stereo not drawn) ? 1.19

###

TGI: recorded values
- System: K-562 leukemia
- protocol-description: NCI tumour cell line growth inhibition, 48 h

molecule: O=C(Cn1c(C(=O)c2ccc(Cl)cc2)nc(-c2ccc(Cl)cc2)c1-c1ccc(Cl)cc1)c1ccccc1
TGI: > 100 µM
//
molecule: CC(C)(C)COC(=O)C(C)(C)NC(=O)C(CC(=O)OCc1ccccc1)NC(=O)OCc1ccccc1 (configuration not stated)
TGI: > 100 µM
//
molecule: CC1(C)CC(=O)C=C(/C=C/Sc2c(Cl)c(Cl)nc(Cl)c2Cl)C1
TGI: > 100 µM
//
molecule: COc1ccc2c(c1)N(Cc1ccc(Cl)cc1)CCC2N1CCCC1=O (configuration not stated)
TGI: > 100 µM

Then there is this molecule:
What does the record list as TGI for O=C(CN1CCCC1=O)CS(=O)(=O)c1ccccc1 ? > 100 µM

###

- Test system: HT29 colon
- protocol-description: NCI tumour cell line growth inhibition, 48 h
TGI: recorded values
Express it in µM; write the number only.

smiles-data: Cn1c2ccc(F)cc2c2ccc3c(c21)C(=O)C=CC3=O
tested-system: HT29 colon
TGI, µM: 49.2
--
smiles-data: O=C1Nc2ccccc2/C1=C\c1c(-c2ccccc2)nc2sccn12
tested-system: HT29 colon
TGI, µM: 36.9
--
smiles-data: C[C@@]1(CCCCCCCCCCc2ccccc2)C[C@@]2(C)OC(=O)C[C@H]2OO1
tested-system: HT29 colon
TGI, µM: 31.5

Then there is this compound:
What does the record list as TGI for CN1CC=C(c2cc(NC(=O)Nc3ccc(Oc4ccnc(NC(=O)C5CC5)c4)c(F)c3)cc(C(F)(F)F)c2)CC1 ? 0.678

###

- Test system: CCRF-CEM leukemia
- protocol-description: NCI tumour cell line growth inhibition, 48 h
measurement-type: GI50

The following molecules have reported results that may help.
molecule: COc1ccc2c(c1)N(Cc1ccc(Cl)cc1)CCC2N1CCCC1=O (configuration not stated)
GI50: 4.74 µM
--
molecule: Cc1ccc(C)c2c1C(=O)N(c1ccc(F)cc1F)C2=O
GI50: > 100 µM
--
molecule: NC(=O)c1cccc2c(N[C@H](CN3CCC3)c3ccc(Cl)c(C(F)(F)F)c3)ncnc12
GI50: 0.871 µM

Query GI50 on CCRF-CEM leukemia for CCCCCCC1N=C(N)N=C(N)N1c1cccc(Cl)c1 (configuration not stated) 0.442 µM

Query GI50 on CCRF-CEM leukemia for CN(C)C1CCN(Cc2ccc(NC(=O)c3cncc(C#Cc4cnc(N)c5ncccc45)c3)cc2C(F)(F)F)CC1 1.54 µM

Query GI50 on CCRF-CEM leukemia for CN1CC=C(c2cc(NC(=O)Nc3ccc(Oc4ccnc(NC(=O)C5CC5)c4)c(F)c3)cc(C(F)(F)F)c2)CC1 0.126 µM

Query GI50 on CCRF-CEM leukemia for Cn1cc(C2=C(c3c4n(c5ccccc35)CCNC4)C(=O)NC2=O)c2ccccc21 8.91 µM
